- PROTOCOL_NOTES: growth suppression of PTEN-deleted HCT116, pilot screen, cell-based, HCT116 clonal line, CellTiter-Glo (AID 824)
- MEASUREMENT_CONDITIONS: 60 h, at 10 µM, active compounds read low
Results filed as inconclusive are left out.
Binarize viability at 90%; below is Y, at or above is N.

[
  {
    "COMPOUND": "CCOC(=O)N1CCN(S(=O)(=O)c2cc(Br)cc3c2N(C(=O)C2CC2)CC3)CC1",
    "CLASS_NAME": "N"
  }
]

# input Does the reported viability of Cc1c(NC(=O)NCCN2C(=O)C3C4C=CC(C4)C3C2=O)c(=O)n(-c2ccccc2)n1C (stereo not drawn) stay below 90%?
# output N

# input Does the reported viability of `CCOC(=O)N1CCN(C(=O)CN(c2cccc(C)c2)S(=O)(=O)c2ccccc2)CC1` stay below 90%?
# output N

# input Does the reported viability of `O=C(Nc1ccccc1C(=O)N1CCOCC1)c1ccco1` stay below 90%?
# output N

# input Does the reported viability of `COc1ccc(Nc2oc(COc3ccccc3F)nc2C#N)cc1` stay below 90%?
# output Y

# input Does the reported viability of `O=C(NCc1ccco1)C1CCN(C(=O)Cc2ccccc2)CC1` stay below 90%?
# output N
